target: human orexin-2 receptor (Homo sapiens, UniProt O43614); assay: FLIPR intracellular calcium assay, orexin receptor antagonistic activity (OX2); conditions: CHO cells expressing human orexin-2 receptor; agonist 3 nM orexin-A; normalized to on-plate reference; * geomean n = 5, *2 geomean n = 2
Sequence (O43614 whole entry): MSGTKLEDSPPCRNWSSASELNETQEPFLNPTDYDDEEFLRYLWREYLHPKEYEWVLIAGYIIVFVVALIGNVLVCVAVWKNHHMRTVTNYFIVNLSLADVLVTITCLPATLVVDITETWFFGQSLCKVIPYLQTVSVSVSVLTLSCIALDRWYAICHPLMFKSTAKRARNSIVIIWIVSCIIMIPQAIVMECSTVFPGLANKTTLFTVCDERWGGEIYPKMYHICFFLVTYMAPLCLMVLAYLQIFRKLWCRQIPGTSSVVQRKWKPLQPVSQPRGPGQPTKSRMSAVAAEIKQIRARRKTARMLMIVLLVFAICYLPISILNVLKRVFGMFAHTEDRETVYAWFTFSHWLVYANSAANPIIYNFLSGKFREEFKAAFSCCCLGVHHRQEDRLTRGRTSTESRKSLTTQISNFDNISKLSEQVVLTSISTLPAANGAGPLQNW
QUANTITY KIND: IC50 (nM)

INSERT INTO measurements (molecule, system_name, quantity_kind, unit_string, value) VALUES
  ('CCOc1ccccc1C1OCC(=O)N1Cc1ccccc1F (centres unmarked)', 'human orexin-2 receptor (Homo sapiens, UniProt O43614)', 'IC50', 'nM', 262),
  ('COc1cccc(OC)c1C1OC(C)(C)C(=O)N1Cc1ccc(Oc2ccccc2)cn1 (centres unmarked)', 'human orexin-2 receptor (Homo sapiens, UniProt O43614)', 'IC50', 'nM', 236);

a: COc1cccc(OC)c1C1OC(C)(C)C(=O)N1Cc1nc2ccccc2n1C (centres unmarked)
b: COc1cccc(Cl)c1C1OC(C)(C)C(=O)N1Cc1ccc(Oc2ccccc2)cc1 (centres unmarked)
c: COc1cccc(OC)c1C1OCC(=O)N1Cc1cccc(OC(F)(F)F)c1 (centres unmarked)
Qu. # desc sort on IC50 across 3 molecules A complete answer lists every label in the requested sequence.
Ans. a, c, b

###

Target: human orexin-1 receptor (Homo sapiens, UniProt O43613)
Sequence (O43613 whole entry): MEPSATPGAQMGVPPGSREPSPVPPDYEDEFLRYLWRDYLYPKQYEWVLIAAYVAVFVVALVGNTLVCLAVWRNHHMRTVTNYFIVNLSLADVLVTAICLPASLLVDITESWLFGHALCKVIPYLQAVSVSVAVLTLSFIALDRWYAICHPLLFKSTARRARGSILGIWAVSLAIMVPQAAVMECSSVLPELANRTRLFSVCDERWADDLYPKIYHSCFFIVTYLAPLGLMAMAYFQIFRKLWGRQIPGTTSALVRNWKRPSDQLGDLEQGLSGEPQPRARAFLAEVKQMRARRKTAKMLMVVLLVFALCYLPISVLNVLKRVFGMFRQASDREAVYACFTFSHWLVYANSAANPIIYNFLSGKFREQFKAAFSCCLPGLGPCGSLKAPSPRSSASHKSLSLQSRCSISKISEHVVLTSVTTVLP
Experiment: FLIPR intracellular calcium assay, orexin receptor antagonistic activity (OX1)
Conditions: CHO cells expressing human orexin-1 receptor; agonist 3 nM orexin-A; normalized to on-plate reference; * geomean n = 5, *2 geomean n = 2
Procedure: The orexin receptor antagonistic activity of the compounds of formula (I) is determined in accordance with the following experimental method. […] Within the Fluorescent Imaging Plate Reader (FLIPR Tetra, Molecular Devices), antagonists are added to the plate in a volume of 10 μl/well, incubated for 10 min and finally 10 μl/well of agonist is added. […] The calculated IC50 values of the compounds may fluctuate depending on the daily cellular assay performance. […]
pIC50: −log10 of the molar value.
QUANTITY KIND: pIC50

A: CCOc1ccccc1C1OCC(=O)N1Cc1cc(C(F)(F)F)cc(Cl)c1F (centres unmarked)
B: COc1cccc(OC(C)C)c1C1OC(C)(C)C(=O)N1Cc1ccc(Oc2ccccc2)cc1 (centres unmarked)
Qu. Pick one: A or B . Which one has the lower reported pIC50? Pick one; state its label.
Ans. A
(A: 5.08, B: 8.00)

###

// reported pIC50 for each item listed
target: human orexin-1 receptor (Homo sapiens, UniProt O43613); experiment: FLIPR intracellular calcium assay, orexin receptor antagonistic activity (OX1); settings: CHO cells expressing human orexin-1 receptor; agonist 3 nM orexin-A; normalized to on-plate reference; * geomean n = 5, *2 geomean n = 2
pIC50: −log10 of the molar value.

Here are 3 compounds together with their reported answers.
INSERT INTO measurements (compound, value) VALUES
  ('CCOc1ccccc1C1OCC(=O)N1Cc1ccc(OC)cc1 (stereo not shown) [Example 27]', '< 5.00'),
  ('CCOc1ccccc1C1OCC(=O)N1Cc1ccccc1C (stereo not shown) [Example 2]', '< 5.00'),
  ('COc1cccc(OC)c1C1OCC(=O)N1Cc1ccc(C(F)(F)F)cc1 (stereo not shown) [Example 32]', '< 5.00');

Moving on to the next compound.
Qu. API: value(readout= pIC50, system= human orexin-1 receptor (Homo sapiens, UniProt O43613), query= CCOc1ccccc1C1OCC(=O)N1Cc1cccc(C)c1 (stereo not shown) [Example 24] )
Ans. < 5.00
